Readings of IC50 for the listed molecules
Test system: HL-60 (human leukemia)
Assay Comment: In vitro antiproliferative MTT assay, HL-60
Assay type: cell-based
Setup Conditions: Homo sapiens, HL-60; Table 4
Procedure: The antiproliferative activity of compounds 5a–r was determined based on an MTT assay and using CA-4 as standard against the tumor cell lines: HL-60 (human leukemia), SF-295 (human glioblastoma), MDA-MB435 (melanoma), PC3M (prostate cancer), OVCAR-8 (ovaries adenocarcinoma), NCI-H258M (pulmonary bronchio-alveolar carcinoma) and HCT-8 (adenocarcinoma ileocecal) (Table 2). […]

The cases that follow already have their IC50 on record.
| Molecule | IC50 |
| --- | --- |
| COc1cc(NC(=O)N/N=C/c2ccccc2)cc(OC)c1OC | > 25 µM |
| COc1cc(C(=O)N(C)/N=C/c2ccccc2)cc(OC)c1OC | 0.03 µM |
| O=C(N/N=C/c1ccccc1)c1ccccc1 [Compound 9, (E)-N′-benzylidenebenzohydrazide] | > 25 µM |

Please turn your attention to the following entry.
[ask] Given the molecule COc1cc(/C=N/NC(=O)c2ccccc2)cc(OC)c1OC , what is its reported IC50?
[reply] > 25 µM

----------
Consider the following molecules and their measured SI Lymphocyte/ HL-60 readings.
Tested on: HL-60 (human leukemia)
Assay Comment: In vitro antiproliferative MTT assay, HL-60
Type: cell-based
Setup Conditions: IC50 for human lymphocytes/IC50 for cancer cell line
When you answer, write just the number.

Recorded results for 5 molecules are shown here.
| Smi | SI Lymphocyte/ HL-60 |
| --- | --- |
| COc1cc(C(=O)N/N=C/c2ccc(-c3ccccc3)cc2)cc(OC)c1OC | 1.0 |
| COc1cc(C(=O)N/N=C/c2ccc(F)cc2)cc(OC)c1OC | 3.11 |
| COc1cc(C(=O)N/N=C/c2ccc(Cl)cc2)cc(OC)c1OC | 1.85 |
| COc1cc(C(=O)N/N=C/c2cccc(O)c2)cc(OC)c1OC | 2.60 |
| COc1cc(C(=O)N/N=C/c2coc3ccccc3c2=O)cc(OC)c1OC | 1 |

[ask] // query SI Lymphocyte/ HL-60 value for entry COc1ccc(/C=N/NC(=O)c2cc(OC)c(OC)c(OC)c2)cc1OC
[reply] 4.10

[ask] Which SI Lymphocyte/ HL-60 is listed for COc1cc(C(=O)N/N=C/c2ccc(O)c(O)c2)cc(OC)c1OC ?
[reply] 0.82

[ask] Dear colleague, I am looking for the recorded SI Lymphocyte/ HL-60 of the following molecule: COc1cc(C(=O)N/N=C/c2ccccc2)cc(OC)c1OC
[reply] 4.11

[ask] What measured SI Lymphocyte/ HL-60 goes with COc1cc(/C=N/NC(=O)c2cc(OC)c(OC)c(OC)c2)cc(OC)c1OC ?
[reply] 1

----------
Test system: HL-60 (human leukemia)
Assay Comment: In vitro antiproliferative MTT assay, HL-60
Assay type: cell-based
Setup Conditions: IC50 for human lymphocytes/IC50 for cancer cell line
Endpoint Label: SI Lymphocyte/ HL-60
Lab note: record just the number, no unit beside it.

Solved cases (5 shown):
| Smi | Reported Measurement |
| --- | --- |
| COc1cc(C(=O)N/N=C/c2ccc(O)cc2)cc(OC)c1OC | 5.15 |
| COc1cc(C(=O)N/N=C/c2ccc3c(c2)OCO3)cc(OC)c1OC | 0.43 |
| COc1cc(C(=O)N/N=C/c2cc(C(C)(C)C)c(O)c(C(C)(C)C)c2)cc(OC)c1OC | 1.1 |
| COc1cc(C(=O)N/N=C/c2ccc(Br)cc2)cc(OC)c1OC | 3.07 |
| COc1ccc(/C=C\c2cc(OC)c(OC)c(OC)c2)cc1O | 1.44 |

Kindly review the next compound as well.
[ask] // query SI Lymphocyte/ HL-60 value for entry COc1cc(C(=O)N/N=C/c2ccc(C)cc2)cc(OC)c1OC
[reply] 1.59
